test: recombinant UMI read abundance after kanamycin selection (control-corrected) (log10(CPM+1)); higher = more efficient recombination; extreme values may be limits of the assay; sequences stand for … in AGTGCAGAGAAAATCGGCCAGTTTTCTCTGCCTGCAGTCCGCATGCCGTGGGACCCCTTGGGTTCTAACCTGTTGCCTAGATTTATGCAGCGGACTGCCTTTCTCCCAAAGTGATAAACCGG…AGGTTGGTTTCACT; site = the 11-nt donor;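 further: IS621 bridge recombinase in Escherichia coli cells against a fixed T5 target plasmid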
Would you mind labelling by recombinant UMI read abundance (log10)? At or over 0.006 is yes (1), under is no (0).

Examples with answers:
[
  {
    "chain": "CCTAGAACATGGACCGGTTTTCCCGGTAATCCGTATTTGAG (site TCTAGAACTCT)",
    "answer label": "yes (1)"
  },
  {
    "chain": "ATCTAGGCATGGACCGGTTTTCCCGGTAATCCGTATTTGGC (site ATCTAGGCTGC)",
    "answer label": "no (0)"
  },
  {
    "chain": "CGAACATCATGGACCGGTTTTCCCGGTAATCCGTATTTGCT (site CGAGCATCTAG)",
    "answer label": "yes (1)"
  },
  {
    "chain": "ATGTTACCATGGACCGGTTTTCCCGGTAATCCGTATTTGGT (site ATGTTACCTAC)",
    "answer label": "yes (1)"
  },
  {
    "chain": "AATATGTCATGGACCGGTTTTCCCGGTAATCCGTATTTGAC (site AATGTGTCTGT)",
    "answer label": "no (0)"
  },
  {
    "chain": "AAAATATCATGGACCGGTTTTCCCGGTAATCCGTATTTGCA (site ACAGTATCTTG)",
    "answer label": "yes (1)"
  }
]

Confirm if recombinant UMI read abundance (log10) reported for the sequence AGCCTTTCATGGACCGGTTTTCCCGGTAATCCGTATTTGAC (site AGCCTTTCTGA) is 0.006 or above.
no (0)

Confirm if recombinant UMI read abundance (log10) reported for the sequence CCGAAGCCATGGACCGGTTTTCCCGGTAATCCGTATTTGGG (site TCGAAGCCTCC) is 0.006 or above.
yes (1)

Confirm if recombinant UMI read abundance (log10) reported for the sequence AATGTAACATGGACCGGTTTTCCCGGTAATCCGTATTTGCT (site AATGTAACTGG) is 0.006 or above.
yes (1)

Confirm if recombinant UMI read abundance (log10) reported for the sequence GACAAAGCATGGACCGGTTTTCCCGGTAATCCGTATTTGGT (site GACAAATCTAC) is 0.006 or above.
no (0)

Confirm if recombinant UMI read abundance (log10) reported for the sequence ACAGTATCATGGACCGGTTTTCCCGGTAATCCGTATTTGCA (site ACTGTACCTTG) is 0.006 or above.
no (0)

Confirm if recombinant UMI read abundance (log10) reported for the sequence CATCTCTCATGGACCGGTTTTCCCGGTAATCCGTATTTGTA (site CGTCTCTCTTA) is 0.006 or above.
yes (1)

Confirm if recombinant UMI read abundance (log10) reported for the sequence CGTCTCCCATGGACCGGTTTTCCCGGTAATCCGTATTTGAG (site CGTCTCCCTCT) is 0.006 or above.
yes (1)

Confirm if recombinant UMI read abundance (log10) reported for the sequence TTATGCACATGGACCGGTTTTCCCGGTAATCCGTATTTGTA (site CTATGCACTTA) is 0.006 or above.
yes (1)

Confirm if recombinant UMI read abundance (log10) reported for the sequence GATTGCACATGGACCGGTTTTCCCGGTAATCCGTATTTGAC (site GATTGGACTGT) is 0.006 or above.
no (0)
